- Tested on: MOLT-4 leukemia
- measurement notes: NCI tumour cell line growth inhibition, 48 h
Provide the reported GI50 of each item.

As a guide, the following entries are already answered.
COc1cccc(-c2cc3c4c(nc5ccccc53)C(=O)c3cccnc3-c4n2)c1 :: 788 nM
O=C(Nc1ccc(Oc2cccc(F)c2)c(Cl)c1)c1cnccn1 :: 1850 nM
CN(C)CC1CCC2=C(C1=O)C(c1ccc(Cl)c(Cl)c1)C1=C(CCC(CN(C)C)C1=O)O2 (centres undefined) :: 5180 nM

Now consider a different molecule.
Request: Any idea what its GI50 is? The molecule is Cc1nn(-c2ccc(Cl)cc2)c2nc3c(nc12)C(=O)C(=O)c1ccccc1-3
Response: > 100000 nM
